Values compiled from the supplement of paper PMC10567573.

B1: MFF (parent)
chain: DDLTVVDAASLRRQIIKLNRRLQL

variants of: B1; experiment: protein stability index of a GFP-peptide fusion (GPS, HEK-293T) (PSI 1-6); higher = more stable; settings: c terminus: a fixed tail appended;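 further: lentivirally expressed fusions sorted by FACS into six bins by GFP to DsRed ratio, PSI derived from sequencing read proportions per bin multiplied by bin number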
# protein stability index >= 2 gives Criterion met, anything below gives Criterion not met

[ask] Determine whether this variant has protein stability index no lower than 2: V5E
[reply] Criterion met

[ask] Likewise for L11F ?
[reply] Criterion met

[ask] Likewise for K17A ?
[reply] Criterion not met

[ask] Likewise for I16P ?
[reply] Criterion met

[ask] Likewise for D7A ?
[reply] Criterion met

[ask] Likewise for A9T ?
[reply] Criterion not met

[ask] Likewise for K17R ?
[reply] Criterion met

[ask] Likewise for R21S ?
[reply] Criterion met

[ask] Likewise for L11D ?
[reply] Criterion met

[ask] Likewise for A9Q ?
[reply] Criterion met

[ask] Likewise for Q14A ?
[reply] Criterion not met

[ask] Likewise for L11T ?
[reply] Criterion met

[ask] Likewise for D7M ?
[reply] Criterion met

[ask] Likewise for R13T ?
[reply] Criterion not met

[ask] Likewise for D1N ?
[reply] Criterion met

[ask] Likewise for K17P ?
[reply] Criterion met

[ask] Likewise for R21T ?
[reply] Criterion not met

[ask] Likewise for D7H ?
[reply] Criterion met

[ask] Likewise for L22E ?
[reply] Criterion met

[ask] Likewise for I15M ?
[reply] Criterion not met

[ask] Likewise for A9W ?
[reply] Criterion not met

[ask] Likewise for L11M ?
[reply] Criterion met

[ask] Likewise for L11C ?
[reply] Criterion met

[ask] Likewise for R13Y ?
[reply] Criterion not met

[ask] Likewise for R20D ?
[reply] Criterion met

[ask] Likewise for T4Y ?
[reply] Criterion not met

[ask] Likewise for R12G ?
[reply] Criterion not met

[ask] Likewise for A8R ?
[reply] Criterion met

[ask] Likewise for V5W ?
[reply] Criterion not met

[ask] Likewise for Q14S ?
[reply] Criterion met

[ask] Likewise for D2R ?
[reply] Criterion not met

[ask] Likewise for Q14N ?
[reply] Criterion met

[ask] Likewise for D7P ?
[reply] Criterion met
